test.system: human serum protease thrombin (human, UniProt P00734 328-622)
method.description: phage binding to protein on beads (data not shown)
measurement.type: binding result

* RWCSTYSLGCMKDSDCLAECVCLEHGYCGAGPSYIEGRIVGSA (designed binder, not shown: mature gene III protein of M13 phage) [CMTI-I analogue 104, phage isolate] | no binding
* RWCPRSSLECMKDSDCLAECVCLEHGYCGAGPSYIEGRIVGSA (designed binder, not shown: mature gene III protein of M13 phage) [CMTI-I analogue 236, phage isolate] | no binding
* RWCPKTSLGCMKDSDCLAECVCLEHGYCGAGPSYIEGRIVGSA (designed binder, not shown: mature gene III protein of M13 phage) [CMTI-I analogue 117, phage isolate] | no binding
